Data origin, for the record: ChEMBL document CHEMBL1121719

Biological target: Beta-lactamase (Klebsiella oxytoca)
Assay: Hydrolysis rate by beta-lactamase of Klebsiella sp. 363 relative to cephaloridine (100)
Could you please classify the records by Relative hydrolysis rate using these ranges: b0 (below 40), b1 (40 to below 200), b2 (200 or more)

# example entries with known answers
| compound | cat |
| --- | --- |
| CCN1CCN(C(=O)NC(C(=O)NC2C(=O)N3C(C(=O)O)=C(CSc4nnnn4C)COC23)c2ccc(OC(N)=O)cc2)C(=O)C1=O (centres undefined) | b0 |
| Cn1nnnc1SCC1=C(C(=O)O)N2C(=O)C(NC(=O)C(C(=O)O)c3ccc(O)cc3)C2SC1 (centres undefined) | b0 |
| Cn1nnnc1SCC1=C(C(=O)O)N2C(=O)C(NC(=O)C(O)c3ccccc3)C2OC1 (centres undefined) | b2 |
| Cn1nnnc1SCC1=C(C(=O)O)N2C(=O)C(NC(=O)/C(=N\O)c3ccc(NS(C)(=O)=O)cc3)C2SC1 (centres undefined) | b0 |
| Cn1nnnc1SCC1=C(C(=O)O)N2C(=O)C(NC(=O)C(O)c3ccccc3)C2SC1 (centres undefined) | b1 |
| Cn1nnnc1SCC1=C(C(=O)O)N2C(=O)C(NC(=O)Cc3csc(N)n3)C2SC1 (centres undefined) | b0 |

Ask | State the band of Cn1nnnc1SCC1=C(C(=O)O)N2C(=O)C(NC(=O)Cc3ccc(O)cc3)C2OC1 (centres undefined)
Reply | b2

Ask | Now the same for CCN1CCN(C(=O)NC(C(=O)NC2C(=O)N3C(C(=O)O)=C(CSc4nnnn4C)CSC23)c2ccc(OC(N)=O)cc2)C(=O)C1=O (centres undefined)
Reply | b0

Ask | Now the same for CC1=C(C(=O)O)N2C(=O)C(NC(=O)CSC(F)(F)F)C2OC1 (centres undefined)
Reply | b1

Ask | Now the same for Cn1nnnc1SCC1=C(C(=O)O)N2C(=O)C(NC(=O)/C(=N\O)c3ccc(NS(C)(=O)=O)cc3)C2OC1 (centres undefined)
Reply | b2

###

For each record, write down the corresponding MIC.
System: Klebsiella pneumoniae
Assay: Inhibitory concentration of compound was tested against gram negative Klebsiella sp 363.
Format: functional
Answers are plain numbers, in µg/mL.

// known answers, use as guide
| compound | measured-parameter | unit-string | numeric-result |
| --- | --- | --- | --- |
| CCN1CCN(C(=O)NC(C(=O)NC2C(=O)N3C(C(=O)O)=C(CSc4nnnn4C)COC23)c2ccc(OC(N)=O)cc2)C(=O)C1=O (centres undefined) | MIC | µg/mL | 12.5 |
| Cn1nnnc1SCC1=C(C(=O)O)N2C(=O)C(NC(=O)C(O)c3ccccc3)C2OC1 (centres undefined) | MIC | µg/mL | 100 |
| Cn1nnnc1SCC1=C(C(=O)O)N2C(=O)C(NC(=O)Cc3ccc(O)cc3)C2SC1 (centres undefined) | MIC | µg/mL | 100 |

For every record below, what is its MIC?
1. Cn1nnnc1SCC1=C(C(=O)O)N2C(=O)C(NC(=O)Cc3csc(N)n3)C2SC1 (centres undefined)
2. Cn1nnnc1SCC1=C(C(=O)O)N2C(=O)C(NC(=O)C(C(=O)O)c3ccc(O)cc3)C2SC1 (centres undefined)
3. Cn1nnnc1SCC1=C(C(=O)O)N2C(=O)C(NC(=O)C(C(=O)O)c3ccc(O)cc3)C2OC1 (centres undefined)

Reply |
[6.25, 50, 100]
